GI50 values for the molecules below.
methodNotes: Cytotoxicity against human IGROV1 cells after 48 hrs by SRB assay
Type: functional
testContext: IGROV-1, 48 h, pooled result: one value given for 7 cell lines, strains, targets or settings
Quick note: give the figure in µM, leave out the unit.

lineNotation: Cc1nc2cc(Nc3nc(Nc4ccc(F)cc4)nc(-c4ccc(Cl)cc4)n3)ccc2n1Cc1ccccc1
measurementKind: GI50
unitSymbol: µM
endpointValue: 6.1
--
lineNotation: COc1ccc(-c2nc(Nc3ccc(F)cc3)nc(Nc3ccc4c(c3)nc(C)n4Cc3ccccc3)n2)cc1
measurementKind: GI50
unitSymbol: µM
endpointValue: 4.79
--
lineNotation: Cc1nc2cc(Nc3nc(Nc4ccc(F)cc4)nc(N4CCCC4)n3)ccc2n1Cc1ccccc1
measurementKind: GI50
unitSymbol: µM
endpointValue: 1.9
--
lineNotation: Cc1nc2ccc(Nc3nc(Cl)nc(Nc4ccc(F)cc4)n3)cc2n1Cc1ccccc1
measurementKind: GI50
unitSymbol: µM
endpointValue: 8.1
--
lineNotation: Cc1nc2cc(Nc3nc(Nc4ccc(F)cc4)nc(N4CCN(C)CC4)n3)ccc2n1Cc1ccccc1
measurementKind: GI50
unitSymbol: µM
endpointValue: 2.16
--
lineNotation: Cc1nc2ccc(Nc3nc(NCCN4CCOCC4)nc(Nc4ccc(F)cc4)n3)cc2n1Cc1ccccc1
measurementKind: GI50
unitSymbol: µM
endpointValue: 4.01

Next up:
**Q:** GI50 lookup needed for Cc1nc2cc(Nc3nc(Nc4ccc(F)cc4)nc(-c4cccs4)n3)ccc2n1Cc1ccccc1 , thanks.
**A:** 8.83

----------
methodNotes: Cytotoxicity against human IGROV1 cells after 48 hrs by SRB assay
Assay type: functional
testContext: IGROV-1, 48 h, pooled result: one value given for 7 cell lines, strains, targets or settings
measurementKind: LC50 (concentration killing 50% of cells)

Solved cases below.
lineNotation: Cc1nc2cc(Nc3nc(Nc4ccc(F)cc4)nc(N4CCN(C)CC4)n3)ccc2n1Cc1ccccc1
endpointValue: 15.5 µM
--
lineNotation: COc1ccc(-c2nc(Nc3ccc(F)cc3)nc(Nc3ccc4c(c3)nc(C)n4Cc3ccccc3)n2)cc1
endpointValue: > 100 µM
--
lineNotation: Cc1nc2ccc(Nc3nc(NCCN4CCOCC4)nc(Nc4ccc(F)cc4)n3)cc2n1Cc1ccccc1
endpointValue: 62.3 µM
--
lineNotation: Cc1nc2cc(Nc3nc(Nc4ccc(F)cc4)nc(N4CCCC4)n3)ccc2n1Cc1ccccc1
endpointValue: 11 µM
--
lineNotation: Cc1nc2cc(Nc3nc(Nc4ccc(F)cc4)nc(-c4ccc(Cl)cc4)n3)ccc2n1Cc1ccccc1
endpointValue: 65.4 µM

**Q:** LC50 (concentration killing 50% of cells) lookup needed for Cc1nc2ccc(Nc3nc(Cl)nc(Nc4ccc(F)cc4)n3)cc2n1Cc1ccccc1 , thanks.
**A:** 78.8 µM

**Q:** LC50 (concentration killing 50% of cells) lookup needed for Cc1nc2cc(Nc3nc(Nc4ccc(F)cc4)nc(-c4cccs4)n3)ccc2n1Cc1ccccc1 , thanks.
**A:** 75.7 µM

----------
System: SK-MEL-2
methodNotes: Cytotoxicity against human SK-MEL-2 cells at 10 uM after 48 hrs by SRB assay
Assay type: functional
testContext: SK-MEL-2, 48 h, read-out: GI
inhibition of growth at 10 µM values for the compounds below.
Write the figure, then the unit, nothing else.

**Q:** inhibition of growth at 10 µM lookup needed for COc1ccc(-c2nc(Nc3ccc(F)cc3)nc(Nc3ccc4c(c3)nc(C)n4Cc3ccccc3)n2)cc1 , thanks.
**A:** 51.8%

**Q:** inhibition of growth at 10 µM lookup needed for Cc1nc2cc(Nc3nc(Nc4ccc(F)cc4)nc(-c4ccc(Cl)cc4)n3)ccc2n1Cc1ccccc1 , thanks.
**A:** 16.4%

----------
System: Calf thymus DNA
methodNotes: Binding affinity to calf thymus DNA by UV-vis spectrometric analysis
Type: nucleic-acid assay
testContext: Bos taurus
Ka values for the compounds below.
Quick note: give the figure in ×10⁴ /M, leave out the unit.

Solved cases below.
lineNotation: Cc1nc2ccc(Nc3nc(Cl)nc(Nc4ccc(F)cc4)n3)cc2n1Cc1ccccc1
targetSystem: Calf thymus DNA
measurementKind: Ka
endpointValue: 6.03

lineNotation: Cc1nc2cc(Nc3nc(Nc4ccc(F)cc4)nc(-c4ccc(Cl)cc4)n3)ccc2n1Cc1ccccc1
targetSystem: Calf thymus DNA
measurementKind: Ka
endpointValue: 3.39

lineNotation: Cc1nc2cc(Nc3nc(Nc4ccc(F)cc4)nc(N4CCCC4)n3)ccc2n1Cc1ccccc1
targetSystem: Calf thymus DNA
measurementKind: Ka
endpointValue: 5.23

**Q:** Ka lookup needed for Cc1nc2cc(Nc3nc(Nc4ccc(F)cc4)nc(N4CCN(C)CC4)n3)ccc2n1Cc1ccccc1 , thanks.
**A:** 2.92

**Q:** Ka lookup needed for Cc1nc2cc(Nc3nc(Nc4ccc(F)cc4)nc(-c4cccs4)n3)ccc2n1Cc1ccccc1 , thanks.
**A:** 3.19

**Q:** Ka lookup needed for COc1ccc(-c2nc(Nc3ccc(F)cc3)nc(Nc3ccc4c(c3)nc(C)n4Cc3ccccc3)n2)cc1 , thanks.
**A:** 2.96

**Q:** Ka lookup needed for Cc1nc2ccc(Nc3nc(NCCN4CCOCC4)nc(Nc4ccc(F)cc4)n3)cc2n1Cc1ccccc1 , thanks.
**A:** 7.19

----------
Tested on: T47D
methodNotes: Cytotoxicity against human T47D cells at 10 uM after 48 hrs by SRB assay
Type: functional
testContext: read-out: GI
Records here are stratified by inhibition of growth at 10 µM; strata: A (below 30%), B (30% to below 50%), C (50% or more)

lineNotation: Cc1nc2cc(Nc3nc(Cl)nc(Nc4ccc(F)cc4)n3)ccc2n1Cc1ccccc1
assignedLabel: B

lineNotation: Cc1nc2ccc(Nc3nc(NCCN4CCOCC4)nc(Nc4ccc(F)cc4)n3)cc2n1Cc1ccccc1
assignedLabel: B

lineNotation: Cc1nc2cc(Nc3nc(Nc4ccc(F)cc4)nc(-c4ccccc4)n3)ccc2n1Cc1ccccc1
assignedLabel: C

**Q:** Consider Cc1nc2cc(Nc3nc(Nc4ccc(F)cc4)nc(Nc4ccc(F)cc4)n3)ccc2n1Cc1ccccc1 . To which inhibition of growth at 10 µM class does it belong?
**A:** A

**Q:** Consider Cc1nc2cc(Nc3nc(Nc4ccc(F)cc4)nc(Nc4ncccn4)n3)ccc2n1Cc1ccccc1 . To which inhibition of growth at 10 µM class does it belong?
**A:** A

**Q:** Consider COc1ccc(-c2nc(Nc3ccc(F)cc3)nc(Nc3ccc4c(c3)nc(C)n4Cc3ccccc3)n2)cc1 . To which inhibition of growth at 10 µM class does it belong?
**A:** C

**Q:** Consider Cc1nc2cc(Nc3nc(NCCO)nc(Nc4ccc(F)cc4)n3)ccc2n1Cc1ccccc1 . To which inhibition of growth at 10 µM class does it belong?
**A:** B

**Q:** Consider Cc1nc2ccc(Nc3nc(NCCN)nc(Nc4ccc(F)cc4)n3)cc2n1Cc1ccccc1 . To which inhibition of growth at 10 µM class does it belong?
**A:** A

----------
System: CCRF-CEM
methodNotes: Cytotoxicity against human CCRF-CEM cells after 48 hrs by SRB assay
Assay type: functional
testContext: pooled result: one value given for 6 cell lines, strains, targets or settings
GI50 values for the compounds below.
Quick note: give the figure in µM, leave out the unit.

lineNotation: Cc1nc2ccc(Nc3nc(Cl)nc(Nc4ccc(F)cc4)n3)cc2n1Cc1ccccc1
targetSystem: CCRF-CEM
GI50 [µM]: 3.34

**Q:** GI50 lookup needed for Cc1nc2ccc(Nc3nc(NCCN4CCOCC4)nc(Nc4ccc(F)cc4)n3)cc2n1Cc1ccccc1 , thanks.
**A:** 1.96

**Q:** GI50 lookup needed for COc1ccc(-c2nc(Nc3ccc(F)cc3)nc(Nc3ccc4c(c3)nc(C)n4Cc3ccccc3)n2)cc1 , thanks.
**A:** 3.37

**Q:** GI50 lookup needed for Cc1nc2cc(Nc3nc(Nc4ccc(F)cc4)nc(-c4ccc(Cl)cc4)n3)ccc2n1Cc1ccccc1 , thanks.
**A:** 3.39

**Q:** GI50 lookup needed for Cc1nc2cc(Nc3nc(Nc4ccc(F)cc4)nc(N4CCN(C)CC4)n3)ccc2n1Cc1ccccc1 , thanks.
**A:** 1.43

**Q:** GI50 lookup needed for Cc1nc2cc(Nc3nc(Nc4ccc(F)cc4)nc(-c4cccs4)n3)ccc2n1Cc1ccccc1 , thanks.
**A:** 2.59

**Q:** GI50 lookup needed for Cc1nc2cc(Nc3nc(Nc4ccc(F)cc4)nc(N4CCCC4)n3)ccc2n1Cc1ccccc1 , thanks.
**A:** 2.54

----------
methodNotes: Cytotoxicity against human Hs 578T cells at 10 uM after 48 hrs by SRB assay
Assay type: functional
testContext: read-out: GI
measurementKind: inhibition of growth at 10 µM (%)
Quick note: give the figure in %, leave out the unit.

Solved cases below.
lineNotation: Cc1nc2ccc(Nc3nc(NCCO)nc(Nc4ccc(F)cc4)n3)cc2n1Cc1ccccc1
inhibition of growth at 10 µM (%): 8.56
--
lineNotation: Cc1nc2ccc(Nc3nc(NCCN4CCOCC4)nc(Nc4ccc(F)cc4)n3)cc2n1Cc1ccccc1
inhibition of growth at 10 µM (%): 59.4
--
lineNotation: Cc1nc2ccc(Nc3nc(Cl)nc(Nc4ccc(F)cc4)n3)cc2n1Cc1ccccc1
inhibition of growth at 10 µM (%): 11.1

**Q:** inhibition of growth at 10 µM lookup needed for Cc1nc2cc(Nc3nc(Nc4ccc(O)cc4)nc(Nc4ccc(F)cc4)n3)ccc2n1Cc1ccccc1 , thanks.
**A:** 1.42

**Q:** inhibition of growth at 10 µM lookup needed for Cc1nc2cc(Nc3nc(Nc4ccc(F)cc4)nc(Nc4ncccn4)n3)ccc2n1Cc1ccccc1 , thanks.
**A:** 20.9
